- EXPERIMENTAL_PROTOCOL: viability loss in THP-1 monocytes – THP-1 cells, cytotoxicity control for Vif-APOBEC3G degradation inhibitor project, dose response (AID 1117359)
- STATED_CONDITIONS: THP-1 viability, CellTiter-Glo luminescence, 72 h; series mostly up to 40 µM
In all, about 1,500 compounds went through this assay and about 460 (31%) were called active. The list is a sample of the results. Measured potencies and affinities stand elsewhere.

{"columns": ["COMPOUND", "outcome"],
 "data": [
  ["O=C(O)c1ccc(-n2cccc2/C=N\\NC(=O)c2cc3cc(Br)ccc3o2)cc1", "inactive"],
  ["O=C(Cc1ccc2c(c1)OCCO2)N1CCN(S(=O)(=O)c2cccs2)CC1", "inactive"],
  ["CCOC(=O)Cn1nc(-c2ccccc2)c2cnc3ccc(C)cc3c21", "inactive"],
  ["CCOc1ccc(NC(=O)C2CCCN(S(=O)(=O)c3c(C)n[nH]c3C)C2)cc1 (stereo unspecified)", "inactive"],
  ["COc1cccc(CN2CCNC(=O)C2CC(=O)NCCn2nc(C)cc2C)c1OC (stereo unspecified)", "inactive"],
  ["COc1ccc(OC)c(N2C(=O)[C@@H]3C(c4ccccc4Cl)=NO[C@@H]3C2=O)c1", "inactive"],
  ["O=C1CC(Nc2ccc(N3CCOCC3)cc2)C(=O)N1CCc1ccccc1 (stereo unspecified)", "inactive"],
  ["CC(C)OCCCNC(=O)c1cccs1", "inactive"],
  ["Cc1ccc(NC(=O)CN2C(=O)N/C(=C/c3ccco3)C2=O)cc1", "inactive"],
  ["CCNC(=O)C1CC(=O)N(Cc2ccc(F)cc2)C(=Nc2ccc(OC)cc2)S1 (stereo unspecified)", "inactive"],
  ["O=C(Nc1ccccc1)c1ccc(S(=O)(=O)N(CCO)CCO)cc1", "inactive"]
]}

###

- EXPERIMENTAL_PROTOCOL: viability loss in THP-1 monocytes – THP-1 cells, cytotoxicity control for Vif-APOBEC3G degradation inhibitor project, dose response (AID 1117359)
- STATED_CONDITIONS: THP-1 viability, CellTiter-Glo luminescence, 72 h; series mostly up to 40 µM
The whole screen tested about 1,500 compounds, of which about 460 (31%) were called active. A selection follows. Measured potencies and affinities stand elsewhere.

{"columns": ["COMPOUND", "outcome"],
 "data": [
  ["O=C(O)CCCNc1cc(N2CCC3(CC2)OCCO3)c2noc3c2c1C(=O)c1ccccc1-3", "inactive"],
  ["CC(=O)Nc1ccc(NC(=O)C(C)OC(=O)CCc2c[nH]c3ccccc23)cc1 (stereo unspecified)", "inactive"],
  ["CCN1CNC(=S)N(CCc2ccccc2)C1", "inactive"],
  ["CCOc1ccc(-n2c(C)nc(O)c2N=Nc2ccccc2)cc1", "inactive"],
  ["CC(C)CCN1CCN(Cc2cccn2-c2cccnc2)CC1CCO (stereo unspecified)", "inactive"],
  ["Cc1cc(C)n(CC(=O)NNC(=O)c2ccc(NC(=O)CC#N)cc2)n1", "inactive"]
]}
